target: DRB1*1201 (DR5w12) (Homo sapiens, UniProt P01903+P01911, A100R/A169T/D57E/D86V/F55L/H45Y/K41T/L162R/M171V/P40S/Q125H/Q178H/Q39Y/Q99D/R42G/S66L/T262R/V114A/V67L/W38E/Y59H/Y61H/Y89S); construct: Epstein-Barr virus (EBV) transformed homozygous cell lines were used as sources; endogenous in cells; host or cells: Herluf (EBV-transformed homozygous B cell line); experiment: biochemical; type: binding; settings: Binding Capacity (IC50% nM) DR5w12
parameter.measured: IC50

Q. May I ask what IC50 has been recorded for CC[C@H](C)[C@H](N)C(=O)N1CCC[C@H]1C(=O)N[C@@H](CCC(N)=O)C(=O)N[C@@H](CCC(=O)O)C(=O)N[C@@H](Cc1c[nH]c2ccccc12)C(=O)N[C@@H](CCCCN)C(=O)N1CCC[C@H]1C(=O)N[C@@H](C)C(=O)N[C@H](C(=O)N[C@H](C(=O)N[C@H](C(=O)N[C@@H](CCCCN)C(=O)N[C@H](C(=O)N[C@@H](CC(C)C)C(=O)N1CCC[C@H]1C(=O)N[C@@H](C)C(=O)O)C(C)C)C(C)C)[C@@H](C)O)[C@@H](C)CC [Peptide 1136.21] ?
A. > 10000 nM

---

molecular target: DRB1*1501 (DR2w2b) (Homo sapiens, UniProt P01903+P01911); construct: expressed in transfected cells; host or cells: transfected fibroblasts L466.1; assay: biochemical; type: binding; conditions: Binding Capacity (IC 50% nM) Other Alleles DR2w2b
parameter.measured: IC50

# count of solved cases: 2
compound: CC[C@H](C)[C@H](NC(=O)[C@H](Cc1ccccc1)NC(=O)[C@H](Cc1ccccc1)NC(=O)[C@H](CO)NC(=O)[C@H](C)NC(=O)[C@@H]1CCCN1C(=O)[C@H](Cc1ccccc1)NC(=O)[C@@H](NC(=O)[C@@H](N)C(C)C)C(C)C)C(=O)N[C@@H](CCCCN)C(=O)N[C@@H](CC(C)C)C(=O)N1CCC[C@H]1C(=O)N[C@H](C(=O)N[C@H](C(=O)N[C@@H](CC(C)C)C(=O)N[C@@H](C)C(=O)O)[C@@H](C)CC)[C@@H](C)CC [Peptide 1136.11]
result: < 1000 nM
--
compound: CC[C@H](C)[C@H](NC(=O)[C@H](CC(C)C)NC(=O)[C@H](CCCCN)NC(=O)[C@H](CCSC)NC(=O)[C@H](C)NC(=O)[C@H](CC(C)C)NC(=O)[C@@H]1CCCN1C(=O)[C@@H](NC(=O)[C@H](C)NC(=O)[C@H](Cc1c[nH]cn1)NC(=O)[C@H](CC(N)=O)NC(=O)[C@@H](NC(=O)[C@H](Cc1c[nH]c2ccccc12)NC(=O)[C@H](CC(N)=O)NC(=O)[C@@H](N)Cc1c[nH]cn1)C(C)C)C(C)C)C(=O)O [Peptide 1188.34]
result: < 1000 nM

Next up:
Q. May I ask what IC50 has been recorded for CC[C@H](C)[C@H](NC(=O)[C@H](CC(=O)O)NC(=O)[C@H](CC(C)C)NC(=O)[C@@H](NC(=O)CNC(=O)[C@@H](NC(=O)[C@@H](NC(=O)[C@@H](NC(=O)[C@@H](NC(=O)[C@H](C)NC(=O)[C@H](CC(C)C)NC(=O)[C@@H](NC(=O)[C@H](CC(N)=O)NC(=O)[C@H](CO)NC(=O)[C@H](CC(C)C)NC(=O)[C@@H](N)CC(N)=O)C(C)C)[C@@H](C)O)[C@@H](C)CC)[C@@H](C)O)[C@@H](C)O)C(C)C)C(=O)O [Peptide 1136.24] ?
A. < 1000 nM

Data provenance is patent US6413517B1.
